The values you see were collected from patent US4017607A.

# assay_comment: Acute toxicity by oral administration to mice
# reported_conditions: mouse, in vivo, free base
reported_property: LD50 (mg/kg)
The answer is to be given in mg/kg; state only the numeric part.

For CCC(=O)OC1CC(=O)OC(C)CC=CC=CC(O)C(C)CC(CC=O)C(OC2OC(C)C(OC3CC(C)(O)C(OC(=O)CC)C(C)O3)C(N(C)C)C2O)C1OC (stereo not shown) [SF-837 substance, reference compound] , write its LD50. 3200

----------
# System: Bacillus anthracis No. 119
# assay_comment: microbe, parasite or virus in culture
# Format: cell-based
# reported_conditions: NO.119, 24 h, read-out: Minimum Inhibitory Concentration
Listed here are compounds together with their documented MIC.
Provide a numeric answer, followed by its unit.

Consider the reported MIC for these compounds:
CCC(=O)OC1CC(=O)OC(C)CC=CC=CC(OC(C)=O)C(C)CC(CC=O)C(OC2OC(C)C(OC3CC(C)(OC(=O)CC)C(OC(=O)C(C)C)C(C)O3)C(N(C)C)C2O)C1OC (centres unmarked) [Compound No. 3]; 1.56 µg/mL
CCC(=O)OC1CC(=O)OC(C)CC=CC=CC(OC(C)=O)C(C)CC(CC=O)C(OC2OC(C)C(OC3CC(C)(OC(C)=O)C(OC(=O)CC)C(C)O3)C(N(C)C)C2O)C1OC (centres unmarked) [Compound No. 2]; 0.78 µg/mL
CCC(=O)OC1CC(=O)OC(C)CC=CC=CC(OC(C)=O)C(C)CC(CC=O)C(OC2OC(C)C(OC3CC(C)(O)C(OC(=O)CC)C(C)O3)C(N(C)C)C2OC(C)=O)C1OC (centres unmarked) [9,2'-di-acetyl SF-837 substance, reference compound]; 1.56 µg/mL
CCC(=O)OC1CC(=O)OC(C)CC=CC=CC(O)C(C)CC(CC=O)C(OC2OC(C)C(OC3CC(C)(O)C(OC(=O)CC)C(C)O3)C(N(C)C)C2O)C1OC (centres unmarked) [SF-837 substance, reference compound]; 0.78 µg/mL

Here is the next item to consider.
For CCC(=O)OC1CC(=O)OC(C)CC=CC=CC(OC(C)=O)C(C)CC(CC=O)C(OC2OC(C)C(OC3CC(C)(O)C(OC(=O)CC)C(C)O3)C(N(C)C)C2O)C1OC (centres unmarked) [9-mono-acetyl SF-837 substance, reference compound] , write its MIC. 1.56 µg/mL
